All figures here come from ChEMBL document CHEMBL4190399.

pKi for assorted compounds
- Target: 5-hydroxytryptamine receptor 2A (Homo sapiens, UniProt P28223)
- Sequence (P28223 whole entry): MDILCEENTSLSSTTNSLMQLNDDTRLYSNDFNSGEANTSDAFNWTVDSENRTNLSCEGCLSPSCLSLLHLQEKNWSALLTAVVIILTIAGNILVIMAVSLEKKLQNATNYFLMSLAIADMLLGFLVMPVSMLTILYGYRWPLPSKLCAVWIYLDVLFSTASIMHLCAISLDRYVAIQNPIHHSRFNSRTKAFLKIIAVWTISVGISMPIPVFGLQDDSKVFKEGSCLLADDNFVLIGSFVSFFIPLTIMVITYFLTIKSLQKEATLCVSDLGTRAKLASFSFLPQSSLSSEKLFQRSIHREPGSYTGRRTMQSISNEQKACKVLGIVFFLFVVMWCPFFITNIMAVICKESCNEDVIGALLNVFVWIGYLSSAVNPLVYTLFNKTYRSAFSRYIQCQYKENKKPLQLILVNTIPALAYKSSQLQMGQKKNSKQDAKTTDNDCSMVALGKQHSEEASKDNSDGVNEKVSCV
// scale note: pKi = -log10(conc_M); give the bare number

compound="O=C1Nc2ccccc2C12CCN(CCN1CCN(c3ccccc3Cl)CC1)C2 (stereo not given)" value_reported=6.34
compound="O=C1Nc2ccccc2C12CCN(CCN1CCN(c3ccc(Cl)cc3)CC1)C2 (stereo not given)" value_reported=7.17
compound="O=C1Nc2ccccc2C12CCN(CCN1CCN(c3cccc(Cl)c3)CC1)C2 (stereo not given)" value_reported=6.45
compound="O=C1Nc2ccccc2C12CCN(CCN1CCN(c3ccccc3)CC1)C2 (stereo not given)" value_reported=6.30

Let us examine a further case.
Exercise: Entry O=C1Nc2ccccc2C12CCN(CCN1CCN(c3ccc(Cl)c(Cl)c3)CC1)C2 (stereo not given) : reported pKi = ?
Key: 6.57
